Target: DNA topoisomerase 1 (Homo sapiens) (UniProt P11387)
Sequence (whole entry): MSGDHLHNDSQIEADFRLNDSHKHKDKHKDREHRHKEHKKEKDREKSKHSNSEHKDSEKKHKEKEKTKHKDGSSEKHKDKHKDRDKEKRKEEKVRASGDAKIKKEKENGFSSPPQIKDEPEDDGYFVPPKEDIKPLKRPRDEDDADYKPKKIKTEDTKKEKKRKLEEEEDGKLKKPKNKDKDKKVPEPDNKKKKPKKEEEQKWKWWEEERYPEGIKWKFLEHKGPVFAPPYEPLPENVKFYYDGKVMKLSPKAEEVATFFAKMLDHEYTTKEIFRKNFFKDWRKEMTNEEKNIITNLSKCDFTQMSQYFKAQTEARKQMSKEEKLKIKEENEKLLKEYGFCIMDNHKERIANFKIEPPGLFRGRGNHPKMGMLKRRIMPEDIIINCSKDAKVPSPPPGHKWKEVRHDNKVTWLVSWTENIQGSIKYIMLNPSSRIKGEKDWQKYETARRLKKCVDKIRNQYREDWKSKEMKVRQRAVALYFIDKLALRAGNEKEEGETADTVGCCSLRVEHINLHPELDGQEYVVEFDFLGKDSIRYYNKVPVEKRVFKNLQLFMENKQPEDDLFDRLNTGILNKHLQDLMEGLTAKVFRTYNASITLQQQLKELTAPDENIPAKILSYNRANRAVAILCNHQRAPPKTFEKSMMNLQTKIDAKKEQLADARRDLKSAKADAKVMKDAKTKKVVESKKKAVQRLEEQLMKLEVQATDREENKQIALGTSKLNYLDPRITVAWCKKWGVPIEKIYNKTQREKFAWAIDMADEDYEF
Experiment: Inhibition of recombinant human topoisomerase 1 expressed in yeast TopI null strain RS190 at 100 uM using negatively supercoiled pUC18 plasmid DNA as substrate incubated for 15 secs by agarose gel electrophoresis method
Conditions: time 15.0 sec
Listing: inhibition of selected molecules
Dear colleague, please return just the value in %, with no unit written.

A selection of reference data follows.
MOLECULE: Cc1ccc2c(c1)[C@H]1Nc3ncccc3[C@@H](c3ccccc3)[C@@H]1CO2
inhibition [%]: 21
--
MOLECULE: Fc1ccc2c(c1)[C@H]1Nc3ncccc3[C@@H](c3ccccc3)[C@@H]1CO2
inhibition [%]: 14
--
MOLECULE: Cc1ccc2c(c1)-c1nc3ncccc3c(-c3ccccc3)c1CO2
inhibition [%]: 26
--
MOLECULE: Fc1ccc2c(c1)-c1nc3ncccc3c(-c3ccccc3)c1CO2
inhibition [%]: 41
--
MOLECULE: c1ccc(-c2c3c(nc4ncccc24)-c2ccccc2OC3)cc1
inhibition [%]: 10

The record that follows has no inhibition shown yet.
Challenge: Given the entry Cc1ccc(S(=O)(=O)N2Cc3c(nc4ncc(Br)cc4c3-c3ccccc3)-c3ccccc32)cc1 , report its measured inhibition.
Response given: 98

----------
Listing: inhibition of selected compounds
Biological target: DNA topoisomerase 1 (Homo sapiens)
Experiment: Inhibition of recombinant human topoisomerase 1 expressed in yeast TopI null strain RS190 at 100 uM using negatively supercoiled pUC18 plasmid DNA as substrate incubated for 1 min by agarose gel electrophoresis method
Dear colleague, please return just the value in %, with no unit written.

A selection of reference data follows.
MOLECULE: COc1ccc(-c2c3c(nc4ncccc24)-c2ccccc2OC3)cc1
PARAMETER_MEASURED: inhibition
UNIT_ABBREV: %
VALUE_MEASURED: 11
//
MOLECULE: Fc1ccc2c(c1)-c1nc3ncccc3c(-c3ccccc3)c1CO2
PARAMETER_MEASURED: inhibition
UNIT_ABBREV: %
VALUE_MEASURED: 40
//
MOLECULE: c1ccc([C@@H]2c3cccnc3N[C@@H]3c4ccccc4OC[C@@H]23)cc1
PARAMETER_MEASURED: inhibition
UNIT_ABBREV: %
VALUE_MEASURED: 60

Challenge: Given the entry Cc1ccc(S(=O)(=O)N2Cc3c(nc4ncc(Br)cc4c3-c3ccccc3)-c3ccccc32)cc1 , report its measured inhibition.
Response given: 98

Challenge: Given the entry c1ccc(-c2c3c(nc4ncccc24)-c2ccccc2OC3)cc1 , report its measured inhibition.
Response given: 9

----------
Molecular target: UniProt P11387
Sequence (whole entry): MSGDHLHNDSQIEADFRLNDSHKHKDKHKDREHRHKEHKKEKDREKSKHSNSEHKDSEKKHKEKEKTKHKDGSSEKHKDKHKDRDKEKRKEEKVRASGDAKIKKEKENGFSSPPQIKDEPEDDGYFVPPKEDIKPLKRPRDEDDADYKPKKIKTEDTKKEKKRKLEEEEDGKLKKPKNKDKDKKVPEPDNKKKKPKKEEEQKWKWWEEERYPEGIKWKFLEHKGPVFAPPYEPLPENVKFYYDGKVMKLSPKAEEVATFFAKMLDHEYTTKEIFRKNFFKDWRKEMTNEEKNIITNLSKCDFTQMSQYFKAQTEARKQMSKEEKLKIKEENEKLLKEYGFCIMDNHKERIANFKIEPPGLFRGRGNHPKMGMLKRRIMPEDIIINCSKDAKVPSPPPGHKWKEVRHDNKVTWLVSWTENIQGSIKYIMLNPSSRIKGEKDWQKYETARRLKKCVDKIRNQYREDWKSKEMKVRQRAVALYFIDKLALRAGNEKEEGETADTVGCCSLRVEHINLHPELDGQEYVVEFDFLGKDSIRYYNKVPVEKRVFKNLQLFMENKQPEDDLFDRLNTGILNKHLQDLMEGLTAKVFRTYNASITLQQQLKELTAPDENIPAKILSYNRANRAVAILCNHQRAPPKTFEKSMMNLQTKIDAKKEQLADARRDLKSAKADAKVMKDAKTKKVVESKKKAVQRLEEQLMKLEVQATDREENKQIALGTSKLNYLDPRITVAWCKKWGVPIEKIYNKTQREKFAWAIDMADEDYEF
Assay: Inhibition of recombinant human topoisomerase 1 expressed in yeast TopI null strain RS190 at 100 uM using negatively supercoiled pUC18 plasmid DNA as substrate incubated for 3 min by agarose gel electrophoresis method
Listing: inhibition of selected molecules
Dear colleague, please return just the value in %, with no unit written.

A selection of reference data follows.
MOLECULE: Cc1ccc2c(c1)-c1nc3ncccc3c(-c3ccccc3)c1CO2
VALUE_MEASURED: 1
--
MOLECULE: Fc1ccc2c(c1)-c1nc3ncccc3c(-c3ccccc3)c1CO2
VALUE_MEASURED: 11
--
MOLECULE: Cc1ccc(S(=O)(=O)N2Cc3c(nc4ncccc4c3-c3ccccc3)-c3ccccc32)cc1
VALUE_MEASURED: 92
--
MOLECULE: O=c1oc2ccccc2c2nc3ncc(Br)cc3c(-c3ccccc3)c12
VALUE_MEASURED: 5
--
MOLECULE: COc1ccc(-c2c3c(nc4ncccc24)-c2ccccc2OC3)cc1
VALUE_MEASURED: 6

The record that follows has no inhibition shown yet.
Challenge: Given the entry O=c1oc2ccccc2c2nc3ncccc3c(-c3ccccc3)c12 , report its measured inhibition.
Response given: 51

----------
Target: DNA topoisomerase 1 (Homo sapiens) (UniProt P11387)
Assay: Inhibition of recombinant human topoisomerase 1 expressed in yeast TopI null strain RS190 at 100 uM using negatively supercoiled pUC18 plasmid DNA as substrate incubated for 15 secs by agarose gel electrophoresis method
Settings: time 15.0 sec
PARAMETER_MEASURED: inhibition (%)
Dear colleague, please return just the value in %, with no unit written.

MOLECULE: O=c1oc2ccccc2c2nc3ncccc3c(-c3ccccc3)c12
UNIT_ABBREV: %
inhibition: 75

MOLECULE: O=c1oc2ccc(F)cc2c2nc3ncccc3c(-c3ccccc3)c12
UNIT_ABBREV: %
inhibition: 5

MOLECULE: O=c1oc2ccccc2c2nc3ncc(Br)cc3c(-c3ccccc3)c12
UNIT_ABBREV: %
inhibition: 21

Challenge: Given the entry Cc1ccc(S(=O)(=O)N2C[C@H]3[C@H](c4ccccc4)c4cccnc4N[C@@H]3c3ccccc32)cc1 , report its measured inhibition.
Response given: 91
